Data provenance: the RepoRT retention time repository (doi:10.1016/j.jchromb.2020.122105)

- Protocol summary: HILIC, Thermo Scientific Accucore HILIC, 100 × 2.1 mm, 2.6 µm, 0.5 mL/min, estimated dead time 0.44 min; A: water + 0.1% formic acid + 10 mM ammonium formate, pH 3; B: 5% water + 95% acetonitrile + 0.1% formic acid + 10 mM ammonium formate, pH 3; gradient (min/%B) 0/95 5/95 20/57 25/57 30/95 40/95
- Experimental context: stereoisomer not certain
// returns not met unless LC retention time is strictly below 10 min, in which case met

Task: Threshold test, LC retention time < 10 min: CC(O)(CC(=O)O)CC(=O)O [3-HYDROXY-3-METHYLGLUTARATE]
Output: not met

Task: Please state whether LC retention time is below 10 min for O=C([O-])CCc1ccccc1O [3-(2-HYDROXYPHENYL)PROPANOATE]
Output: met

Task: Quick check: does `N[C@@H](Cc1cnc[nH]1)C(=O)O` have LC retention time under 10 min?
Output: not met

Task: Please let me know if Cc1ncc(CO)c(C(=O)O)c1O [4-PYRIDOXATE] shows LC retention time below 10 min.
Output: met

Task: Problem: For the molecule O=c1[nH]c(=O)c2[nH]c(=O)[nH]c2[nH]1 [URATE] , is LC retention time under 10 min?
Output: met

###

Give measured LC retention time for each item. Keep answers brief.
- Protocol summary: RP, Waters ACQUITY UPLC BEH C18, 100 × 2.1 mm, 1.7 µm, 0.2 mL/min, estimated dead time 1.1 min; A: water + 0.025% formic acid + 20 mM ammonium acetate + 0.055% ammonium hydroxide, pH 7; B: methanol; gradient (min/%B) 0/5 5/5 25/100 30/100 30.1/5 35/5
- Experimental context: stereoisomer not certain
Your answer should be a plain number; it is taken to be in min.

Task: If you can, please state the reported LC retention time value of CCCCCCSCC(NC(=O)CCC(N)C(=O)O)C(=O)NCC(=O)O (stereo not drawn) [S-HEXYL-GLUTATHIONE] .
Output: 12.8

Task: Recorded LC retention time of CC(=O)NCCCC(=O)[O-] [4-ACETAMIDOBUTANOATE] , please.
Output: 1.38

Task: GET /values?readout=LC retention time&item= CC(=O)NC(CCC(=O)O)C(=O)O (racemic) [N-ACETYL-DL-GLUTAMIC ACID]
Output: 1.36

###

- Protocol summary: RP, Waters ACQUITY UPLC BEH C18, 100 × 2.1 mm, 1.7 µm, 0.1 mL/min, estimated dead time 2.2 min; A: water + 0.045% formic acid + 0.11% ammonium hydroxide, pH 7; B: methanol; gradient (min/%B) 0/5 5/5 25/95 25.1/100 35/100 35.1/5 45/5
- Experimental context: stereoisomer not certain
What log10 of LC retention time was measured for each of the following?
Annotation: log10 of LC retention time, min basis.

Task: Which log10 of LC retention time value is on record for NC(=O)c1cccnc1 [NICOTINAMIDE] ?
Output: 0.84

Task: Quick one: log10 of LC retention time of `COc1cc(CCN)ccc1O` ?
Output: 0.96

Task: What value of log10 of LC retention time has been recorded for this entry: `NCCc1c[nH]c2ccc(O)cc12`
Output: 1.14

Task: Suppose we examine the compound `NCCc1ccccc1` ; what log10 of LC retention time value has been reported?
Output: 1.31

Task: Param item = `Cn1cncc1CCN` ; retrieve measured log10 of LC retention time.
Output: 0.54

Task: If you can, please state the reported log10 of LC retention time value of `CC(=O)N[C@H](Cc1c[nH]c2ccccc12)C(=O)O` .
Output: 1.15

Task: Item CCCCCCCCCCCCCCCC(O)C(N)CO (stereo not given) has what recorded log10 of LC retention time?
Output: 1.46

Task: Could you tell me which log10 of LC retention time is on file for `Nc1ncnc2nc[nH]c12` ?
Output: 0.44

Task: I am curious: what log10 of LC retention time value has been reported for C=C1CCC(O)CC1=CC=C1CCCC2(C)C1CCC2C(C)C=CC(C)C(C)C (stereo not given) [VITAMIN D2] ?
Output: 1.53

Task: Look up log10 of LC retention time for this compound: `NCCCCN=C(N)N`
Output: 0.56

Task: Returns the measured log10 of LC retention time for the input compound. Input: CCCCCCSCC(NC(=O)CCC(N)C(=O)O)C(=O)NCC(=O)O (stereo not given)
Output: 1.30

Task: Please look up its log10 of LC retention time: NC(=O)CCCCC1CCSS1 (stereo not given) [LIPOAMIDE]
Output: 1.30

Task: I would be grateful if you could share the reported log10 of LC retention time for CCCCCCCCCCCCCC(=O)OCC(O)CO (racemic) [RAC-GLYCEROL 1-MYRISTATE] .
Output: 1.46

Task: Name the reported log10 of LC retention time value associated with the compound `Cc1ncc(CO)c(CN)c1O`
Output: 0.44

Task: Would you mind telling me what log10 of LC retention time value was observed for `COC1=C(OC)C(=O)C(CC=C(C)CCC=C(C)CCC=C(C)CCC=C(C)CCC=C(C)CCC=C(C)CCC=C(C)CCC=C(C)CCC=C(C)CCC=C(C)C)=C(C)C1=O` ?
Output: 1.58

Task: Which log10 of LC retention time is reported for this compound? CCCCCCCCCCCCCCCC(=O)O [PALMITATE]
Output: 1.57

Task: Entry `c1ccc2ncccc2c1` : reported log10 of LC retention time = ?
Output: 1.21

Task: Give the measured log10 of LC retention time of NC(=O)[C@@H](N)Cc1c[nH]c2ccccc12 [L-TRYPTOPHANAMIDE] .
Output: 1.15

Task: Given the entry Cn1cnc2c(ncn2C2OC(CO)C(O)C2O)c1=N (stereo not given) , report its measured log10 of LC retention time.
Output: 1.13

Task: Item under review: CC(=O)OCC(=O)C1(O)CCC2C3CCC4=CC(=O)CCC4(C)C3C(O)CC21C (stereo not given) [CORTISOL 21-ACETATE] . Reported log10 of LC retention time?
Output: 1.36

Task: Which log10 of LC retention time is listed for CCCCCCCCC=CCCCCCCCC(=O)NC(COP(=O)([O-])OCC[N+](C)(C)C)C(O)C=CCCCCCCCCCCCCC (stereo not given) ?
Output: 1.57

Task: Quick one: log10 of LC retention time of `C=CC1=C(C)C(=Cc2[nH]c(Cc3[nH]c(C=C4NC(=O)C(C)=C4C=C)c(C)c3CCC(=O)O)c(CCC(=O)O)c2C)NC1=O` ?
Output: 1.43

Task: // log10 of LC retention time lookup, key: CCCCCCCCCCCCCCCC(=O)OCC(COP(=O)(O)OCCN)OC(=O)CCCCCCCCCCCCCCC (racemic)
Output: 1.57

Task: Would you kindly share the measured log10 of LC retention time for `CNCCc1c[nH]c2ccccc12` ?
Output: 1.16

Task: Consider the compound shown here: CCCCC(CC)COC(=O)c1ccccc1C(=O)OCC(CC)CCCC (stereo not given) [BIS(2-ETHYLHEXYL)PHTHALATE] What is its recorded log10 of LC retention time?
Output: 1.49
